system: Aspergillus fumigatus; experiment: Inhibition of Aspergillus fumigatus 231 growth for 24 hours in vitro.; format: functional; conditions: Aspergillus fumigatus, 24 h; read-out: MIC
Recorded MIC, one value per entry.
Write the answer as a number in µM, unit excluded.

Guide cases for MIC, answers given:
# COMPOUND, U, VALUE
rows = [
    ("CC(=O)OCC1C=C(c2ccc(Br)cc2)C(=O)O1 (centres undefined)", "µM", 0.98),
    ("O=C1OC(CO)C=C1c1cccc(Cl)c1 (centres undefined)", "µM", 31.2),
]

Exercise: Which MIC is listed for CC(C)(C)C(=O)OCC1C=C(c2ccc(Br)cc2)C(=O)O1 (centres undefined) ?
Solution: 0.98

The reported numbers originate from ChEMBL document CHEMBL1134691.
